Test target: human secretin receptor (hSCTR) (human, UniProt P47872 23-440)
Sequence (P47872 23-440): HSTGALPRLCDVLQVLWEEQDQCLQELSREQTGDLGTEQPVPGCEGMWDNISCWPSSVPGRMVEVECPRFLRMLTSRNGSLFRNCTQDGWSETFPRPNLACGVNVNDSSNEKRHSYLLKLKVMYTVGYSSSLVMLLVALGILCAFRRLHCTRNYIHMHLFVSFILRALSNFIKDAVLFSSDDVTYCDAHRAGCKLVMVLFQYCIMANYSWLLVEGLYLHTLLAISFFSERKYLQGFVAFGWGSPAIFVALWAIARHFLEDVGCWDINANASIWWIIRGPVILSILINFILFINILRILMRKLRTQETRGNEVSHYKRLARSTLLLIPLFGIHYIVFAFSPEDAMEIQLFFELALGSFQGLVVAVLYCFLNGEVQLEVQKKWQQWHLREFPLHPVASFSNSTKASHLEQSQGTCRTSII
Method summary: cell-based or functional assay
Numbered stars: 1 amine (or outer) side, 2 acyl side, 3 side chain; on linkers, the order of the positions; unused ones are H or OH. Square brackets hold non-standard residues; d marks the D form. Side chains are listed from the residue outwards. Ends that are not written are not given here. * marks the point of attachment. C20 diacid = O=C(O)CCCCCCCCCCCCCCCCCCC(=O)*; C18 diacid = O=C(O)CCCCCCCCCCCCCCCCC(=O)*; γGlu = O=C(O)[C@H](CCC(=O)[*:2])N[*:1]; AEEA = NCCOCCOCC(=O)O; Aib = CC(C)(N)C(=O)O
Please respond with reported pEC50 hSCTR for every item in the list.

# batch size: 3; output pEC50 hSCTR per entry
1. H[Aib]EGTFTSDVSRLK([AEEA-AEEA-γGlu-C18 diacid])EGAAEQRFLQHLVEAE-NH2 [SEQ ID NO: 204]
2. H[Aib]EGTFTSDVSRLK([AEEA-AEEA-γGlu-C20 diacid])EEAALQRFLEHLVEAA-NH2 [SEQ ID NO: 207]
3. H[Aib]EGTFTSDVSRLK([AEEA-AEEA-γGlu-C18 diacid])EGAAEQRFLQHLVEAA-NH2 [SEQ ID NO: 205]

5.6 -log M
8.2 -log M
5.3 -log M
